Measured pKi accompanies every entry in the list below.
- TARGET OF ASSAY: Retinoic acid receptor beta (Homo sapiens, UniProt P10826)
- Sequence (P10826 whole entry): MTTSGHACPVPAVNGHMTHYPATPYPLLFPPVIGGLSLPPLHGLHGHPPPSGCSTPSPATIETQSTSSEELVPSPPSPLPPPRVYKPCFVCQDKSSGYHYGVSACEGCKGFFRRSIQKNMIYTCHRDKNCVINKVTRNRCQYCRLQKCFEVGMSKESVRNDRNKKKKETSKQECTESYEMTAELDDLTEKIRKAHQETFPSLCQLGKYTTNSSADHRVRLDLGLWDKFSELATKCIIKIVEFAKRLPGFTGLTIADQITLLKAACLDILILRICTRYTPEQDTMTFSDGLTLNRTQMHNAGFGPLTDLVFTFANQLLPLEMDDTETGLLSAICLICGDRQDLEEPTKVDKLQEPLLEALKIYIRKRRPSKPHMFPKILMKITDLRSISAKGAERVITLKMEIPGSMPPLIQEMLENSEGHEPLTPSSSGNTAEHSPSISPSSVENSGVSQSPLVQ
In plain terms, pKi is the concentration in mol/L turned into minus its base-10 logarithm.

{"COMPOUND": "COc1ccc(-c2ccc3cc(C(=O)O)ccc3c2)cc1C(C)(C)C", "TARGET OF ASSAY": "Retinoic acid receptor beta (Homo sapiens, UniProt P10826)", "pKi": 7.44}
{"COMPOUND": "CC1(C)CCC(C)(C)c2cc(-c3ccc4cc(C(=O)O)ccc4c3)ccc21", "TARGET OF ASSAY": "Retinoic acid receptor beta (Homo sapiens, UniProt P10826)", "pKi": 7.89}
{"COMPOUND": "O=C(O)c1ccc2cc(-c3ccc(C(O)CO)c(C45CC6CC(CC(C6)C4)C5)c3)ccc2c1 (stereo unspecified)", "TARGET OF ASSAY": "Retinoic acid receptor beta (Homo sapiens, UniProt P10826)", "pKi": 6.54}
{"COMPOUND": "COc1ccc(/C(C)=C/c2ccc(C(=O)O)cc2)cc1C1(C)CCCCC1", "TARGET OF ASSAY": "Retinoic acid receptor beta (Homo sapiens, UniProt P10826)", "pKi": 7.77}
{"COMPOUND": "COc1ccc(-c2ccc3cc(C(=O)O)ccc3c2)cc1C1(C)CCCCC1", "TARGET OF ASSAY": "Retinoic acid receptor beta (Homo sapiens, UniProt P10826)", "pKi": 7.59}

Lab note: next compound to report on.
Short answer for C/C(=C\c1ccc(C(=O)O)cc1)c1ccc(O)c(C(C)(C)C)c1 : pKi was 6.98

====

- System: F9
- ASSAY OVERVIEW: Compound was evaluated for its inhibitory activity against F9 murine teratocarcinoma cell differentiation
- Format: functional, cell-based
- TEST CONTEXT: Mus musculus
TEST READOUT: pIC50
In plain terms, pIC50 is the concentration in mol/L turned into minus its base-10 logarithm.

Short answer for C/C(=C\c1ccc(C(=O)O)cc1)c1ccc(O)c(C(C)(C)C)c1 : pIC50 was 6.15

Data origin, for the record: ChEMBL document CHEMBL1128217
